tested on: T47D; assay: NCI tumour cell line growth inhibition, 48 h
Activity calls are given as the source filed them. No stated cut-off is given here; in the data, active = GI50 up to about 1.1 µM and inactive = higher.
Return exactly one item of TRUE = active, FALSE = inactive

Per the assay record, what outcome was assigned to Cc1cc2nc3ccccc3n2c2ccccc12 ? FALSE

Per the assay record, what outcome was assigned to COc1cccc2cc(C(=O)Nc3ccccc3)c(=N)oc12 ? FALSE

Per the assay record, what outcome was assigned to COc1ccc(C(=O)c2ccc(-n3cc(/C=C/[N+](=O)[O-])c4ccccc43)cc2)cc1 ? FALSE

Per the assay record, what outcome was assigned to OCC1OC(NC(=S)NCCC(F)(F)C(F)(F)C(F)(F)C(F)(F)C(F)(F)C(F)(F)F)C(O)C(O)C1O (centres undefined) ? FALSE

Per the assay record, what outcome was assigned to CN(C)CCn1c(=O)c2ccc3c4c(nn3CCN(C)C)c3cc([N+](=O)[O-])ccc3n(c1=O)c24 ? TRUE

Per the assay record, what outcome was assigned to Cc1cc(NC(=O)NC(=O)c2ccccc2N(C)C)ccc1Oc1ncc(Br)cn1 ? FALSE

Per the assay record, what outcome was assigned to C=C(CN(C)C)C(=O)c1cc(C)ccc1C ? FALSE

Per the assay record, what outcome was assigned to COc1cc2c(cc1OCCCC(=O)Nc1cc(C(=O)Nc3cc(C(=O)Nc4cc(C(=O)NCCCN(C)C)n(C)c4)n(C)c3)n(C)c1)N=C[C@@H]1CCCN1C2=O ? FALSE

Per the assay record, what outcome was assigned to O=P(O)(Cc1ccccc1)OCC1(O)OCC(O)C(O)C1O (centres undefined) ? FALSE

###

test system: SK-MEL-2; test: NCI tumour cell line growth inhibition, 48 h
Activity calls are given as the source filed them. No stated cut-off is given here; in the data, active = GI50 up to about 1.1 µM and inactive = higher.
test_readout: GI50

Value lookup for GI50; key = N#CCCNCCN(CCN(C(=O)Nc1ccccc1)c1ccccc1)C(=O)Nc1ccccc1 38.4 µM (inactive)

Value lookup for GI50; key = CC1(C)N=C(N)N=C(N)N1c1ccc(OCCCOc2ccccc2)c(Cl)c1 1.37 µM (inactive)

Value lookup for GI50; key = C=CCOc1ccc(C(=N/NC(=O)c2ccccc2)/N=N/c2ccccc2)cc1OC > 100 µM (inactive)

Value lookup for GI50; key = Cc1ccc(Cc2n[nH]c(=O)n2/N=C\CC/C=N\n2c(Cc3ccc(C)cc3)n[nH]c2=O)cc1 28 µM (inactive)

Value lookup for GI50; key = O=C1C(c2ccc(Br)cc2)=[N+]([O-])c2ccccc21 11.7 µM (inactive)

Value lookup for GI50; key = COC1OC2COC(C)(C)OC2C2OC(C)(C)OC12 (stereo unspecified) > 100 µM (inactive)

Value lookup for GI50; key = O=C1C=CC(=C(c2ccccc2)c2ccc(O)cc2)C=C1 15.8 µM (inactive)

Value lookup for GI50; key = O=C(/C(=C\c1ccccc1)CN1CCOCC1)c1ccc(Br)cc1 1.92 µM (inactive)

Value lookup for GI50; key = COc1ccc(C2=C(Cl)c3cc(OC)c(OC)cc3C2OC)cc1OC (stereo unspecified) > 100 µM (inactive)

Value lookup for GI50; key = CCNC(=S)NNC(=O)CSc1nc2ccc(I)cc2c(=O)n1Cc1ccccc1 29.4 µM (inactive)

Value lookup for GI50; key = CC(C)N/C(=N\C#N)NS(=O)(=O)c1cnccc1NC1CCCCCCC1 > 100 µM (inactive)

Value lookup for GI50; key = COC(=O)c1ccc(N/C=C(/C#N)c2ccsc2)cc1 22.2 µM (inactive)

Value lookup for GI50; key = COC(=O)c1cc(C(=O)OC)cc(-c2ccc3c(c2)-c2nc4c(c(-c5ccc(OC)cc5)c2CC3)CCc2ccc(-c3cc(C(=O)OC)cc(C(=O)OC)c3)cc2-4)c1 > 100 µM (inactive)

Value lookup for GI50; key = CCSSCS(C)(=O)=O 39.1 µM (inactive)

Value lookup for GI50; key = C=C1C(=O)OC2C1CC1OC2C(C)CCC/C(C)=C\CCC1(C)O (stereo unspecified) 10.8 µM (inactive)

Value lookup for GI50; key = CC1=CC(=O)CC(C)(C)C1(O)/C=C/C(C)=C/C(=O)O (stereo unspecified) > 100 µM (inactive)

Value lookup for GI50; key = COc1nc2ccc(CNc3ccc(C(=O)O)cc3)cc2nc1OC > 10 µM (inactive)

Value lookup for GI50; key = N[C@H]1CCN(c2c(F)cc3c(=O)c(C(=O)O)cn4c3c2Oc2c-4ccc3c2ccc2ccccc23)C1 9.77 µM (inactive)

Value lookup for GI50; key = COc1ccc(OC)c(N2C(=O)CSC2c2cc(OC)c(OC)c(OC)c2)c1 (stereo unspecified) > 100 µM (inactive)

Value lookup for GI50; key = Cc1cc(Cl)ccc1NC(=O)CCCC(=O)C1CCC/C1=N\NC(=O)CC#N (stereo unspecified) > 100 µM (inactive)

Value lookup for GI50; key = CCN(CCCN(CC)C(=O)Nc1c(C)cccc1C)C(=O)Nc1c(C)cccc1C > 100 µM (inactive)

###

test system: HCC 2998; assay: NCI tumour cell line growth inhibition, 48 h
Where a name gives a salt, the structure may show the parent alone. The source made the active and inactive calls. No stated cut-off is given here; in the data, active = GI50 up to about 1.1 µM and inactive = higher.
test_readout: GI50

Value lookup for GI50; key = Cn1cc(C[C@@H](N)C(=O)O)c2ccccc21 > 100 µM (inactive)

Value lookup for GI50; key = O=P1(c2ccccc2)C(c2ccccc2)=CC=C1c1ccccc1 25.2 µM (inactive)

Value lookup for GI50; key = CCOC(=O)Oc1ccc(C(CNC(C)C)OC(=O)OCC)cc1OC(=O)OCC (centres undefined) > 100 µM (inactive)

Value lookup for GI50; key = CCc1cccc(CC)c1Nc1nc2c(s1)C(=O)c1ccccc1C2=O 18.7 µM (inactive)

Value lookup for GI50; key = COC(=O)c1sc2ncc3c(c2c1N)CC(C)CC3 (centres undefined) > 100 µM (inactive)

Value lookup for GI50; key = OCCN(CO)CO > 100 µM (inactive)

Value lookup for GI50; key = CCOC(=O)N1CCN(c2c(N)nc(C)nc2O)CC1 > 100 µM (inactive)

Value lookup for GI50; key = CC(=O)C1=C(C)Cn2c(=O)c3ccccc3c(=O)n2C1 > 100 µM (inactive)

Value lookup for GI50; key = O=C1/C(=C/c2ccc(O)cc2)CC/C1=C\c1ccc(O)cc1 > 100 µM (inactive)

Value lookup for GI50; key = COc1ccc(NC(=S)N/N=C/c2c(C)n(C)n(-c3ccccc3)c2=O)cc1 > 100 µM (inactive)

Value lookup for GI50; key = COc1ccc(CCN2CCN(CCCc3ccccc3)CC2)cc1 69.3 µM (inactive)

Value lookup for GI50; key = O=C(Cc1nc2ccccc2[nH]c1=O)c1c[nH]c2ccccc12 13.3 µM (inactive)

Value lookup for GI50; key = Cc1ccc(S(=O)(=O)n2c3ccc(Br)cc3c3nc4ccccc4nc32)cc1 > 100 µM (inactive)

Value lookup for GI50; key = CC1C(c2ccc3c(c2)OCO3)c2cc3c(cc2OC1N1CCCCC1)OCO3 (centres undefined) 20 µM (inactive)

Value lookup for GI50; key = CCN(CC)CCNc1ccc(C)c2sc3ccccc3c(=O)c12 [LUCANTHONE HYDROCHLORIDE] 3.64 µM (inactive)

Value lookup for GI50; key = O=C(O)Cc1c[nH]c2ccc(F)cc12 > 100 µM (inactive)

Value lookup for GI50; key = CC(C)(C)c1cc(Cc2ccc([N+](C)(C)C)cc2)c(O)c(C(C)(C)C)c1 15.7 µM (inactive)

Value lookup for GI50; key = Cc1cc(=O)[nH]c(-n2[nH]c(C)c(CCO)c2=O)n1 > 100 µM (inactive)

Value lookup for GI50; key = CC1(C)OC(COCCOCCCCCO)C(COCCOCCCCCO)O1 (centres undefined) > 100 µM (inactive)

Value lookup for GI50; key = O=c1nc2occc2cn1C1CC(O)C(CO)O1 (centres undefined) > 100 µM (inactive)

Value lookup for GI50; key = COc1ccc(/C=C2\CCC(CNc3ccc(S(N)(=O)=O)cc3)C2=O)cc1 (centres undefined) 33.3 µM (inactive)

Value lookup for GI50; key = CC(=O)/C=C1/c2ccccc2N(C(C)=O)C1O (centres undefined) > 100 µM (inactive)

Value lookup for GI50; key = NC(=S)N1N=C2c3ccccc3CC[C@H]2[C@@H]1c1ccc(Cl)cc1 36.7 µM (inactive)

Value lookup for GI50; key = CCOC(=O)C1=C(C)N(C)C(=S)NC1c1cccc(O)c1 (centres undefined) 34 µM (inactive)

###

tested on: SF-268; assay: NCI tumour cell line growth inhibition, 48 h
Active and inactive are the calls of the source. No stated cut-off is given here; in the data, active = GI50 up to about 1.1 µM and inactive = higher. *1 amine or outer side, *2 acyl side, *3 side chain or, on linkers, in order; H or OH if unused. Where a SMILES comes first, the peptide text is derived from it. Bridges are numbered along the chain shown (N, C = ends). [ ]: non-standard residue; d: D form. ξ: configuration not given here. X10 = CCC(C)C(N[*:1])C(O)CC(=O)O[C@H](C(=O)C(C)C(=O)[*:2])C(C)C; NMeY = CN[C@@H](Cc1ccc(O)cc1)C(=O)O; ξNMeL = CNC(CC(C)C)C(=O)O; ξT = CC(O)C(N)C(=O)O
Return exactly one item of active, inactive

Per the assay record, what outcome was assigned to COc1ccc(-c2c(CN3CCOCC3)sc3nc4ccccc4n23)cc1 ? inactive

Per the assay record, what outcome was assigned to CC(=O)OC12CC(C)C3(O)C4C=C(C)C(=O)[C@@]4(O)CC(CO)=C[C@H]3C1C2(C)C (stereo partly drawn) ? inactive

Per the assay record, what outcome was assigned to CCC(C)C1NC(=O)C(NC(=O)C(CC(C)C)N(C)C(=O)[C@@H]2CCCN2)C(C)OC(=O)[C@H](Cc2ccc(OC)cc2)N(C)C(=O)[C@@H]2CCCN2C(=O)[C@H](CC(C)C)NC(=O)C(C)C(=O)[C@H](C(C)C)OC(=O)CC1O (stereo partly drawn) (H-P[ξNMeL][ξT][X10]LP[NMeY](Me); ester 3-C) ? active

Per the assay record, what outcome was assigned to COc1cccc(N2C(=O)C3c4[nH]c5ccc(C)cc5c4C4CCC(C)CC4C3C2=O)c1 (stereo not drawn) ? inactive

Per the assay record, what outcome was assigned to N=C(N)n1nc2c(c1O)CCC2 ? inactive

Per the assay record, what outcome was assigned to [N-]=[N+]=Nc1c(Cl)c(=O)n(-c2ccccc2)c2ccccc12 ? inactive

Per the assay record, what outcome was assigned to COc1ccc(C(=O)/C(Br)=C/C(=O)O)cc1 ? inactive

Per the assay record, what outcome was assigned to Cc1cccc(Nc2cn(CCOc3ccccc3)c(=O)[nH]c2=O)c1 ? inactive
